# Run description: Displacement of Biocillin FL from Streptococcus pneumoniae 3665 PBP3
Binary call on IC50 with cut-off 0.01 µg/mL: strictly below means True, and equality or higher means False.

## Input Determine whether this molecule shows IC50 lower than 0.01 µg/mL (ties excluded): CO/N=C(\C(=O)N[C@@H]1C(=O)N2C(C(=O)O)=C(COC(N)=O)CS[C@H]12)c1ccco1
## Output False

## Input Determine whether this molecule shows IC50 lower than 0.01 µg/mL (ties excluded): C[C@@H](O)[C@H]1C(=O)N2C(C(=O)O)=C([C@H]3CCCO3)S[C@H]12
## Output True

## Input Determine whether this molecule shows IC50 lower than 0.01 µg/mL (ties excluded): C[C@@H](O)[C@H]1C(=O)N2C(C(=O)O)=C(SCCNC=N)C[C@H]12 [IMIPENEM ANHYDROUS]
## Output False

## Input Determine whether this molecule shows IC50 lower than 0.01 µg/mL (ties excluded): CC1(C)S[C@@H]2[C@H](NC(=O)[C@H](N)c3ccc(O)cc3)C(=O)N2[C@H]1C(=O)O
## Output False
